Below, each entry is listed alongside its reported melting point.

Study these solved cases before continuing.
molecule: COc1ccc(C2CC(c3ccc(OC)c(OC)c3)=NN2c2nc(-c3ccc(F)cc3)cs2)cc1 (centres unmarked)
melting point: 140 to 143 °C
--
molecule: COc1ccc(C2=NN(C(N)=S)C(c3ccc(Cl)cc3)C2)cc1OC (centres unmarked)
melting point: 230 to 232 °C

Request the reported melting point associated with CCOC(=O)c1sc(N2N=C(c3ccc(OC)c(OC)c3)CC2c2ccc(Cl)cc2)nc1C (centres unmarked) 197 to 200 °C

Please give the measured melting point for this molecule: COc1ccc(C2=NN(c3nc(C)c(C(C)=O)s3)C(c3ccc(Cl)cc3)C2)cc1OC (centres unmarked) 215 to 218 °C

So what's the measured melting point for this one? COc1ccc(C2CC(c3ccc(OC)c(OC)c3)=NN2c2nc(C)c(C(C)=O)s2)cc1 (centres unmarked) 213 to 215 °C

* * *

In this section, each of the compounds is paired with its reported melting point.

compound: COc1ccc(C2=NN(c3nc(-c4ccc(C)cc4)cs3)C(c3ccc(Cl)cc3)C2)cc1OC (stereo not shown)
melting point: 189 to 191 °C

Reported melting point, compound COc1ccc(C2CC(c3ccc(OC)c(OC)c3)=NN2C(N)=S)cc1 (stereo not shown) : ____ 221 to 223 °C

Reported melting point for COc1ccc(C2=NN(c3nc(-c4ccc(F)cc4)cs3)C(c3ccccc3)C2)cc1OC (stereo not shown) : what is it? 135 to 140 °C

Could you tell me which melting point is on file for COc1ccc(C2CC(c3ccc(OC)c(OC)c3)=NN2c2nc(-c3ccc(Cl)cc3)cs2)cc1 (stereo not shown) ? 149 to 151 °C

* * *

melting point for assorted compounds

Completed entries (count: 6):
compound: COc1ccc(C2=NN(C(N)=S)C(c3ccccc3)C2)cc1OC (stereo not shown)
recorded.result: 188 to 190 °C
//
compound: COc1ccc(C2=NN(c3nc(-c4ccccc4)cs3)C(c3ccc(Cl)cc3)C2)cc1OC (stereo not shown)
recorded.result: 208 to 210 °C
//
compound: COc1ccc(C2=NN(c3nc(-c4ccc(C)cc4)cs3)C(c3ccccc3)C2)cc1OC (stereo not shown)
recorded.result: 210 to 215 °C
//
compound: COc1ccc(C2=NN(c3nc(-c4ccc(Cl)cc4)cs3)C(c3ccccc3)C2)cc1OC (stereo not shown)
recorded.result: 195 to 198 °C
//
compound: COc1ccc(C2=NN(c3nc(C)c(C(C)=O)s3)C(c3ccccc3)C2)cc1OC (stereo not shown)
recorded.result: 235 to 238 °C
//
compound: CCOC(=O)c1sc(N2N=C(c3ccc(OC)c(OC)c3)CC2c2ccccc2)nc1C (stereo not shown)
recorded.result: 215 to 218 °C

Using the record for COc1ccc(C2=NN(c3nc(-c4ccccc4)cs3)C(c3ccccc3)C2)cc1OC (stereo not shown) , report its melting point. 202 to 205 °C

* * *

// melting point lookup, one value per entry

These solved cases illustrate the format of a correct answer.
compound: COc1ccc(C2CC(c3ccc(OC)c(OC)c3)=NN2c2nc(-c3ccc(C)cc3)cs2)cc1 (stereo not drawn)
melting point: 150 to 152 °C
//
compound: COc1ccc(C2=NN(c3nc(-c4ccc(Cl)cc4)cs3)C(c3ccc(Cl)cc3)C2)cc1OC (stereo not drawn)
melting point: 195 to 197 °C

Next compound, melting point to be filled in.
Which melting point is reported for this compound? CCOC(=O)c1sc(N2N=C(c3ccc(OC)c(OC)c3)CC2c2ccc(OC)cc2)nc1C (stereo not drawn) 169 to 171 °C
